Test: Rat study: drug plasma levels (pharmacokinetics)
Assay type: in vivo
Settings: Sprague Dawley, plasma, 0.1 mg/kg, Dose 0.1, Multiple, n = 2, read-out: AUC0-24
Source text: Rats carry the majority of serum cholesterol in the HDL lipoprotein fraction while humans carry the majority of serum cholesterol in LDL and VLDL lipoproteins. To mimic a human hypercholesterolemic state in a rodent model, Sprague Dawley rats were fed a diet high in cholesterol (Research Diets, C13002) for 6 days before treatment with the compounds for another 8 days while remaining on the diet. […]
EXPERIMENTAL ENDPOINT: AUC(0-t) (µg·h/mL)
The figure you give is taken to be in µg·h/mL; do not add the unit.

Enquiry: Form field: reported AUC(0-t) of O=C(O)COc1ccc2c(c1)CCN(Cc1ccc(-c3ccc(C(F)(F)F)cc3)s1)CC2
Return: 0.772

====

assay: Rat study: drug plasma levels (pharmacokinetics); type: in vivo; details: Dose 0.3, Multiple
EXPERIMENTAL ENDPOINT: Tmax

Enquiry: // returns reported Tmax for input O=C(O)COc1ccc2c(c1)CCN(Cc1ccc(-c3ccc(C(F)(F)F)cc3)s1)CC2
Return: 3 h

====

assay: Rat study: drug plasma levels (pharmacokinetics); format: in vivo; conditions: Sprague Dawley, plasma, 0.3 mg/kg, Dose 0.3, Multiple, read-out: t½
EXPERIMENTAL ENDPOINT: half-life

Enquiry: Need half-life, item O=C(O)COc1ccc2c(c1)CCN(Cc1ccc(-c3ccc(C(F)(F)F)cc3)s1)CC2
Return: ~22 h

====

assay: Rat study: drug plasma levels (pharmacokinetics); assay type: in vivo; settings: Sprague Dawley, plasma, 1 mg/kg, Dose 1, Multiple, n = 2, read-out: AUC0-24
EXPERIMENTAL ENDPOINT: AUC(0-t) (ng·h/mL)
Numeric only. Scale: ng·h/mL

Enquiry: Would you mind telling me what AUC(0-t) value was observed for O=C(O)COc1ccc2c(c1)CCN(Cc1ccc(-c3ccc(C(F)(F)F)cc3)s1)CC2 [compound 7] ?
Return: 10900

====

target: PPARγ (Homo sapiens); construct: expressed in transfected cells; host or cells: HEK293; experiment: Transfection assay, GAL4-PPARγ LBD luciferase reporter in HEK293 cells; type: cell-based; conditions: 18-24 hrs
Sequence (P37231 238-503 limits assumed, species assumed): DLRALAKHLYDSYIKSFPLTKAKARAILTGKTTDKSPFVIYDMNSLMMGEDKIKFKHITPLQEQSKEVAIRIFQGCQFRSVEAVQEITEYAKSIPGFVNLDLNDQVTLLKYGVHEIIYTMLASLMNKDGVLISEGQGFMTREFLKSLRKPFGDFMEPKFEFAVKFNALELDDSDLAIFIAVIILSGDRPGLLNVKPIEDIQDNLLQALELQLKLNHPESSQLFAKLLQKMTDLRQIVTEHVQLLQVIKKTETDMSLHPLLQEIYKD
pEC50: −log10 of the molar value.
Please respond with reported pEC50 for every item in the list.

Enquiry: pEC50 for Cc1nc(-c2ccc(C(F)(F)F)cc2)sc1CN1CCc2ccc(OC(C)(C)C(=O)O)cc2CC1 ?
Return: < 5.52

Enquiry: Input O=C(O)COc1ccc2c(c1)CCN(Cc1cc(-c3ccc(C(F)(F)F)cc3)ns1)CC2
Return: < 5.52

Enquiry: Try Cc1nc(-c2ccc(C(F)(F)F)cc2)sc1CN1CCc2ccc(OCC(=O)O)cc2CC1 next.
Return: < 5.52

Enquiry: And for Cc1nc(-c2ccc(C(F)(F)F)cc2)oc1CN1CCc2ccc(OCC(=O)O)cc2CC1 ?
Return: < 5.52

Enquiry: Item: Cc1c(-c2ccc(C(F)(F)F)cc2)csc1CN1CCc2ccc(OC(C)(C)C(=O)O)cc2CC1
Return: < 5.52

Enquiry: // next record Cc1cc(-c2ccc(C(F)(F)F)cc2)sc1CN1CCc2ccc(OCC(=O)O)cc2CC1
Return: < 5.52

Enquiry: Again, but for CC(c1cnc(-c2ccc(C(F)(F)F)cc2)s1)N1CCc2ccc(OCC(=O)O)cc2CC1 (centres unmarked)
Return: 6.21

Enquiry: Try this compound next: CC(C)(Oc1ccc2c(c1)CCN(Cc1ccc(-c3ccc(C(F)(F)F)cc3)s1)CC2)C(=O)O
Return: < 5.52
